test-description: Stability tests of analytes in rat plasma QC samples
Assay type: in vitro ADME
run-parameters: rat plasma, nominal conc. 100 nM
Procedure: […] The dilution integrity was investigated by analyzing six replicate samples with each analyte, and each analyte were diluted 10-fold with blank rat matrix. Furthermore, the diluted samples were analyzed using freshly prepared calibration curve to calculate RE and RSD, which should be no more than ± 15% as criterion.
Class (by Extracted samples at 8 °C for 18 h, RE) -- bottom (below -10%), middle (-10% to below 10%), top (10% or more)

- compound: "O=C1CCC[C@@H]2[C@H]3CCCN4CCC[C@@H](CN12)[C@@H]34 [Compound A1, Matrine]"
  discrete-label: "middle"
- compound: "CC(C)=CCC[C@](C)(O[C@@H]1O[C@H](CO[C@@H]2OC[C@H](O)[C@H](O)[C@H]2O)[C@@H](O)[C@H](O)[C@H]1O)[C@H]1CC[C@]2(C)[C@@H]1[C@H](O)C[C@@H]1[C@@]3(C)CC[C@H](O[C@@H]4O[C@H](CO)[C@@H](O)[C@H](O)[C@H]4O[C@@H]4O[C@H](CO)[C@@H](O)[C@H](O)[C@H]4O)C(C)(C)[C@@H]3CC[C@]12C [Compound D4, Ginsenoside Rb2]"
  discrete-label: "bottom"
- compound: "CC(C)=CCC[C@](C)(O[C@@H]1O[C@H](CO[C@@H]2O[C@@H](CO)[C@H](O)[C@H]2O)[C@@H](O)[C@H](O)[C@H]1O)[C@H]1CC[C@]2(C)[C@@H]1[C@H](O)C[C@@H]1[C@@]3(C)CC[C@H](O[C@@H]4O[C@H](CO)[C@@H](O)[C@H](O)[C@H]4O[C@@H]4O[C@H](CO)[C@@H](O)[C@H](O)[C@H]4O)C(C)(C)[C@@H]3CC[C@]12C [Compound D3, Ginsenoside Rc]"
  discrete-label: "bottom"
- compound: "CC(C)(O)[C@@H]1CC[C@](C)([C@H]2[C@@H](O)C[C@@]3(C)[C@@H]4C[C@H](O)[C@H]5C(C)(C)[C@@H](O[C@@H]6OC[C@@H](O)[C@H](O)[C@H]6O[C@@H]6O[C@H](CO)[C@@H](O)[C@H](O)[C@H]6O)CC[C@@]56C[C@@]46CC[C@]23C)O1 [Compound B3, Astragaloside III]"
  discrete-label: "top"
- compound: "CC(C)=CCC[C@](C)(O[C@@H]1O[C@H](CO)[C@@H](O)[C@H](O)[C@H]1O)[C@H]1CC[C@]2(C)[C@@H]1[C@H](O)C[C@@H]1[C@@]3(C)CC[C@H](O)C(C)(C)[C@@H]3[C@@H](O[C@@H]3O[C@H](CO)[C@@H](O)[C@H](O)[C@H]3O[C@@H]3OC[C@@H](O)[C@H](O)[C@H]3O)C[C@]12C [Compound C8, Notoginsenoside R1]"
  discrete-label: "top"
- compound: "CC(C)=CCC[C@](C)(O[C@@H]1O[C@H](CO[C@@H]2O[C@H](CO)[C@@H](O)[C@H](O)[C@H]2O)[C@@H](O)[C@H](O)[C@H]1O)[C@H]1CC[C@]2(C)[C@@H]1[C@H](O)C[C@@H]1[C@@]3(C)CC[C@H](O[C@@H]4O[C@H](CO)[C@@H](O)[C@H](O)[C@H]4O[C@@H]4O[C@H](CO)[C@@H](O)[C@H](O)[C@H]4O)C(C)(C)[C@@H]3CC[C@]12C [Compound D5, Ginsenoside Rb1]"
  discrete-label: "bottom"
- compound: "O=C1C=CC[C@@H]2[C@H]3CCC[N+]4([O-])CCC[C@@H](CN12)[C@@H]34 (stereo partly drawn) [Compound A2, Oxysophocarpine]"
  discrete-label: "top"
- compound: "CC(C)=CCC[C@](C)(O[C@@H]1O[C@H](CO)[C@@H](O)[C@H](O)[C@H]1O)[C@H]1CC[C@]2(C)[C@@H]1[C@H](O)C[C@@H]1[C@@]3(C)CC[C@H](O[C@@H]4O[C@H](CO)[C@@H](O)[C@H](O)[C@H]4O[C@@H]4O[C@H](CO)[C@@H](O)[C@H](O)[C@H]4O)C(C)(C)[C@@H]3CC[C@]12C [Compound D2, Ginsenoside Rd]"
  discrete-label: "middle"
- compound: "CC(C)=CCC[C@](C)(O)[C@H]1CC[C@]2(C)[C@@H]1[C@H](O)C[C@@H]1[C@@]3(C)CC[C@H](O)C(C)(C)[C@@H]3[C@@H](O[C@@H]3O[C@H](CO)[C@@H](O)[C@H](O)[C@H]3O)C[C@]12C [Compound C1, Ginsenoside Rh1]"
  discrete-label: "top"
